- Test system: HeLa
- method_summary: Cytotoxicity against human HeLa cells
- Format: functional, cell-based
Active and inactive are the calls of the source. The rule behind the calls is not given here.

compound: CC(C)[C@H](NC(=O)[C@H](C)N(C)C)C(=O)N1CC[C@@H]2Oc3ccc(cc3)/C=C\NC(=O)[C@H](Cc3ccccc3)NC(=O)[C@H]21 [MAURITINE A]
Activity: inactive

compound: CC(C)[C@H](NC(=O)[C@H](C)[N+](C)(C)[O-])C(=O)N1CC[C@@H]2Oc3ccc(cc3)/C=C\NC(=O)[C@H](Cc3ccccc3)NC(=O)[C@H]21
Activity: inactive

compound: CC(C)[C@@H](C(=O)N1CC[C@@H]2Oc3ccc(cc3)/C=C\NC(=O)[C@H](Cc3ccccc3)NC(=O)[C@H]21)N1CN(C)[C@@H](C)C1=O
Activity: inactive
